system: T1, EsCas13d, nuclease-dead (Eubacterium siraeum, UniProt B0MS50, R295A;H300A;R849A;H854A)
T1 sequence: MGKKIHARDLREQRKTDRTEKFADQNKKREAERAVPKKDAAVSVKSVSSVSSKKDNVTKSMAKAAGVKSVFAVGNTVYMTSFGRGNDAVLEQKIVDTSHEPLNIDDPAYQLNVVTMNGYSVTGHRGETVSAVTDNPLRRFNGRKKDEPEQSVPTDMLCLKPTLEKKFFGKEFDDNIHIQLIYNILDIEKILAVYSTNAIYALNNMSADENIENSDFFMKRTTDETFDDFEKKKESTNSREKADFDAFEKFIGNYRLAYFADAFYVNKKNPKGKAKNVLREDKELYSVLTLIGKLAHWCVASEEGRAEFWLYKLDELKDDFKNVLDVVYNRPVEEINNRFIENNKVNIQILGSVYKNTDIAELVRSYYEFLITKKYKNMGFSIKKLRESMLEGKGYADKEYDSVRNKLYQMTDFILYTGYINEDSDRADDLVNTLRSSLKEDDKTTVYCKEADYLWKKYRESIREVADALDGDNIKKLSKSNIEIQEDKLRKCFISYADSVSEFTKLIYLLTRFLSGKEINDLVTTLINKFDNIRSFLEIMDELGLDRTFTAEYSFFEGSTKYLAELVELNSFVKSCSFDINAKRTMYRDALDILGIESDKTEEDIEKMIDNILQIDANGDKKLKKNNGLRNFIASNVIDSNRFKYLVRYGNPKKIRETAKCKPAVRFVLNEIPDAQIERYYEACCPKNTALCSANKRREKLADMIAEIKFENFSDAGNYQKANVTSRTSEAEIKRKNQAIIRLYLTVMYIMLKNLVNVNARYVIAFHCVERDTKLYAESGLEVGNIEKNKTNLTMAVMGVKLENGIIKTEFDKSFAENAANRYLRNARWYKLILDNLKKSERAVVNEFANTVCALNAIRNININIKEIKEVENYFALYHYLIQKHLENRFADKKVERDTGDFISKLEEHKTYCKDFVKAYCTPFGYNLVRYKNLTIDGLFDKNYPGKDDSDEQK
experimental_details: crRNA (strand 1, pre-loaded); Mg2+; 40 mM Tris-HCl pH 7.5, 150 mM NaCl, 6 mM MgCl2, 1 mM DTT, 0.1% Tween-20, 0.2 mg/ml BSA; 25 C; 10 min per concentration, then washed
protocol_conditions: tags: His6-TwinStrep-SUMO cleaved; N-terminal SNAP kept (SNAP-Surface 488); label: 3' end held by stalled T7 RNA polymerase
I'd be grateful if you could share measured Kd for these entries.
Answers are plain numbers, in nM.

target 1 U10A,A20U (mixed) RNA 1: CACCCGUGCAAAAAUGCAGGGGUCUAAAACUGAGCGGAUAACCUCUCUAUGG RNA 2: GGGAAUGGAUCCACAUCUACGAAUUCGUACCUUAGAGAGGUAAUCCGCUCACCGAGAUCGGAAGAGCACACGU    87

Next binder, please.
Query :: Would you kindly share the measured Kd for target 1 insA 3' of 3,insU 3' of 1 (mixed) RNA 1: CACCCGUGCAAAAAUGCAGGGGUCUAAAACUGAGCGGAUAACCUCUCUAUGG RNA 2: GGGAAUGGAUCCACAUCUACGAAUUCGUACCAUAGAGAGGUUAUCCGCUACAUCCGAGAUCGGAAGAGCACACGU ?
Result :: 9.2
